target: rat α1B+α2b+β1b channels (N-type channels) (Rattus norvegicus, UniProt Q02294); construct: expressed in transfected cells; assay: Block of α1B N-type channels, whole cell patch recordings (Example 6); type: cell-based; conditions: 0.067 Hz; HEK 293, 5 mM barium as charge carrier; read-out: Block of α1B N-type Channels IC50, 0.067 Hz
Sequence (Q02294 whole entry): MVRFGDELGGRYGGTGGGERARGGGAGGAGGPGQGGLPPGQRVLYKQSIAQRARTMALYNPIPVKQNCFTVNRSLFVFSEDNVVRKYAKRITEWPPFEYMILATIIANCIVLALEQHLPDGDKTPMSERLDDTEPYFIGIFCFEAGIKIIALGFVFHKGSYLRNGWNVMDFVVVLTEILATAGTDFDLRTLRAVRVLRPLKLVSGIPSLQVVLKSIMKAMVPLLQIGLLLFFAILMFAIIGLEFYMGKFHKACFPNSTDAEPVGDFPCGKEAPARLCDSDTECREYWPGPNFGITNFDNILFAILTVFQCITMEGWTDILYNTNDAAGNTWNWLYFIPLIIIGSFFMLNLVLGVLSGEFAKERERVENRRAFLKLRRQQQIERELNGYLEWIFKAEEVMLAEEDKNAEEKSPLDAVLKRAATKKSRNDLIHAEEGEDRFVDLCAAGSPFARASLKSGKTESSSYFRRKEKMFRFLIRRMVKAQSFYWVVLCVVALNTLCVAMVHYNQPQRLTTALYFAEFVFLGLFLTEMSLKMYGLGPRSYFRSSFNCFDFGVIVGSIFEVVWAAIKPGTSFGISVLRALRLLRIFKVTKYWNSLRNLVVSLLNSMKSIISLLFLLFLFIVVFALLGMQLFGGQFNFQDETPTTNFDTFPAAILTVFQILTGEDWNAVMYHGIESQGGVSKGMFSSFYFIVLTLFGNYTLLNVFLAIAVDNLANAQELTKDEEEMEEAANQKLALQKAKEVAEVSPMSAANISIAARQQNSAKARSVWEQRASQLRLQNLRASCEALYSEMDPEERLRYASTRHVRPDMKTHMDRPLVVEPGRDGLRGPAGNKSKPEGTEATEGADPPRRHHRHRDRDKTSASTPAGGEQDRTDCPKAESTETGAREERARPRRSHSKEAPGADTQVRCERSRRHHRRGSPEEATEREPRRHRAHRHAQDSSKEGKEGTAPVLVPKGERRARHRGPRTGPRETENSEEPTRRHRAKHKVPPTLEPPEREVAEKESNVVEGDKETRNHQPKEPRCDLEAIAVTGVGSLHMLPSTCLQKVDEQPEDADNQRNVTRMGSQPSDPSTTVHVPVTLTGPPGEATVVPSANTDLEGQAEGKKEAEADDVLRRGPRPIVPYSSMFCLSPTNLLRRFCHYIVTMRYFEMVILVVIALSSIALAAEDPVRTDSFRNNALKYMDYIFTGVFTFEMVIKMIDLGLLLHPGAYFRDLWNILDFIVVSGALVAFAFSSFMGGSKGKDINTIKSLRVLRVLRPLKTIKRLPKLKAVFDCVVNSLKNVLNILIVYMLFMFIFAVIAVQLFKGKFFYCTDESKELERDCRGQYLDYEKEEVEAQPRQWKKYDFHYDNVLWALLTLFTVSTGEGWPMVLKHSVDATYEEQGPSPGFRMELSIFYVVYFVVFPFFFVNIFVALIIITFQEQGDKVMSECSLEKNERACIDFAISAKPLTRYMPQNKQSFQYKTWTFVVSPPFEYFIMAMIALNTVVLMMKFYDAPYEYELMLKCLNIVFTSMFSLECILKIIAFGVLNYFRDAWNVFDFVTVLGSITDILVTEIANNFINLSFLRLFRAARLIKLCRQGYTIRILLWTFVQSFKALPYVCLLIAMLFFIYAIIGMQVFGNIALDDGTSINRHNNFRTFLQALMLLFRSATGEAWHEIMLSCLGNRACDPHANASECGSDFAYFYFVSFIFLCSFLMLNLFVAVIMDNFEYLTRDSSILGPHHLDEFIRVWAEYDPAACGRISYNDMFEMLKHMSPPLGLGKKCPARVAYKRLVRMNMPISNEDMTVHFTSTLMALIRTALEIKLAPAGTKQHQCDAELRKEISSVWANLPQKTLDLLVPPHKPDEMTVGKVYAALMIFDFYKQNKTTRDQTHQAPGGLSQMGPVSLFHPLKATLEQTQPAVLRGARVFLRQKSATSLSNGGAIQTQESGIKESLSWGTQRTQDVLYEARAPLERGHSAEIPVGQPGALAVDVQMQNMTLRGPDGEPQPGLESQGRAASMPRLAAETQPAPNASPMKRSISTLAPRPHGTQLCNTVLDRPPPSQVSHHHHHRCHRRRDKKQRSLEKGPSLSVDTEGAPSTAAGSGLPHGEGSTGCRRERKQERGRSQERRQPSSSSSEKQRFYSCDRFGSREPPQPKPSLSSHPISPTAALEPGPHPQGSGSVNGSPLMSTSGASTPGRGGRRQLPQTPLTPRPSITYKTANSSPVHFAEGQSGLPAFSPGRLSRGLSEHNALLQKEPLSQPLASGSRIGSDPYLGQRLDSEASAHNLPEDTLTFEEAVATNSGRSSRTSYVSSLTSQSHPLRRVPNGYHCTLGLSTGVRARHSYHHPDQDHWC
endpoint: log10(IC50) (log10 of the value in nM)
Remember, log10 of IC50, in nM.

Check out these entries, answers already filled in.
Query: Could you tell me which log10(IC50) is on file for COc1cc(C(c2ccccc2)N2CCN(C(=O)CC(c3ccccc3)c3ccccc3)CC2)cc(OC)c1OC (stereo not drawn) ?
Result: 3.04

Query: Could you tell me which log10(IC50) is on file for CC(C)(C)c1cc(C(c2ccccc2)N2CCN(C(=O)CC(c3ccccc3)c3ccccc3)CC2)cc(C(C)(C)C)c1O (stereo not drawn) ?
Result: 2.33

Query: Could you tell me which log10(IC50) is on file for O=C(CC(c1ccccc1)c1ccccc1)N1CCN(C(c2ccccc2)c2ccccc2OC(F)F)CC1 (stereo not drawn) ?
Result: 2.53

Query: Could you tell me which log10(IC50) is on file for O=C(CC(c1ccccc1)c1ccccc1)N1CCN(C(c2ccccc2)c2ccccc2)C(=O)C1 ?
Result: 2.87

Query: Could you tell me which log10(IC50) is on file for O=C(O)C1CN(C(c2ccccc2)c2ccccc2)CCN1C(=O)CC(c1ccccc1)c1ccccc1 (stereo not drawn) ?
Result: 3.28

***
Query: Could you tell me which log10(IC50) is on file for O=C(CC(c1ccccc1)c1ccccc1)N1CCN(C(c2ccccc2)c2ccccc2Cl)CC1 (stereo not drawn) ?
Result: 2.32

Query: Could you tell me which log10(IC50) is on file for O=C(CC(c1ccccc1)c1ccccc1)N1CCN(C(c2ccccc2)c2cc(C(F)(F)F)cc(C(F)(F)F)c2)CC1 (stereo not drawn) [P10 (HC1)] ?
Result: 2.48

Query: Could you tell me which log10(IC50) is on file for COc1cc(C(c2ccccc2)N2CCN(C(=O)CC(c3ccccc3)c3ccccc3)CC2)cc(OC)c1O (stereo not drawn) ?
Result: 2.64
